Please go through the items and note down their denaturant midpoint (higher = more stable).
B1: Ribonuclease, P00648 (parent)
chain: MMKMEGIALKKRLSWISVCLLVLVSAAGMLFSTAAKTETSSHKAHTEAQVINTFDGVADYLQTYHKLPDNYITKSEAQALGWVASKGNLADVAPGKSIGGDIFSNREGKLPGKSGRTWREADINYTSGFRNSDRILYSSDWLIYKTTDHYQTFTKIR

Variants of: B1
Conditions: Bacillus amyloliquefaciens; pH 6.3; 25 °C; Urea; Fluorescence; MES-NaOH 450 mM; reversible: yes; structure 1BNI; whole UniProt chain shown
Value expressed in M; do not type the unit.

Entry `I135A` , denaturant midpoint (higher = more stable) reported as 2.4

Entry `I102T` , denaturant midpoint (higher = more stable) reported as 4.1

Entry `I143A` , denaturant midpoint (higher = more stable) reported as 2.8

Entry `T63R` , denaturant midpoint (higher = more stable) reported as 4.8

Entry D55A D59A , denaturant midpoint (higher = more stable) reported as 4.16

Entry `I135V` , denaturant midpoint (higher = more stable) reported as 3.8

Entry `V83T` , denaturant midpoint (higher = more stable) reported as 3.9

Entry `Q78S` , denaturant midpoint (higher = more stable) reported as 4.4

Entry `I123V` , denaturant midpoint (higher = more stable) reported as 4.1

Entry `T63S` , denaturant midpoint (higher = more stable) reported as 3.6

Entry `I102V` , denaturant midpoint (higher = more stable) reported as 4.4

Entry D59A R157A , denaturant midpoint (higher = more stable) reported as 4.78

Entry `N105D` , denaturant midpoint (higher = more stable) reported as 4.8

Entry `V92A` , denaturant midpoint (higher = more stable) reported as 3.6
